From: ChEMBL document CHEMBL5375992

Listed next: entries and their corresponding Activity.
Target: Cereblon/Casein kinase I alpha (Homo sapiens) (UniProt P48729+Q96SW2)
Sequence (P48729 2-337 limits assumed): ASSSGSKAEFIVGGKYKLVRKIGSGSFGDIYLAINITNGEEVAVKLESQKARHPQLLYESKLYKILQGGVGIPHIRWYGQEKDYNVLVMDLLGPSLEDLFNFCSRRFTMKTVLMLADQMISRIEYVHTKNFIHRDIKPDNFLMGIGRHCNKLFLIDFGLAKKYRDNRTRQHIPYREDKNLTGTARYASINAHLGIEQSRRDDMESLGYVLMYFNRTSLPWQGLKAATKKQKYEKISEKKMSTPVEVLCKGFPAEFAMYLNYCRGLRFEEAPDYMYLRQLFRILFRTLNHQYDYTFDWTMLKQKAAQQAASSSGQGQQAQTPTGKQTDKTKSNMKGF
Sequence (Q96SW2 whole entry partner): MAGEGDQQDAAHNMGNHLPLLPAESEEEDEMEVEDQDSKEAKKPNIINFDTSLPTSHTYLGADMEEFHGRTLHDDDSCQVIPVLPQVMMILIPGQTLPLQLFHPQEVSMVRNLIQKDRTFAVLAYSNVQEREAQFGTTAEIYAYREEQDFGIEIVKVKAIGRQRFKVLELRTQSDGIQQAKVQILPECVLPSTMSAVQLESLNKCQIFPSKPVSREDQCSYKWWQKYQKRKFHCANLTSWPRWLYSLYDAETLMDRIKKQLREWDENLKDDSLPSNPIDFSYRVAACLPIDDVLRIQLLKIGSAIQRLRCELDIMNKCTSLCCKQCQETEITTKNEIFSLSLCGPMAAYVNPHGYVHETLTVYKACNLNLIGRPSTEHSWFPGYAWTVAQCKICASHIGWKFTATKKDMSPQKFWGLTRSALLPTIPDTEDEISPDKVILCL
Assay: Protac activity at CRBN/CK1alpha (unknown origin) transfected in HEK293T cells at 100 nM incubated for 24 hrs by flow cytometry analysis relative to control
Format: cell-based
Lab book: enter the figure in %, no units written.

[in] Look up Activity with Cereblon/Casein kinase I alpha (Homo sapiens) (UniProt P48729+Q96SW2) for this molecule: COc1ccc2nc(C(=O)Nc3ccc4c(c3)CN(C3CCC(=O)NC3=O)C4=O)ccc2c1 (centres undefined)
[out] 69

[in] Lab note: need Activity for O=C1CCC(N2Cc3cc(NC(=O)C4=COc5ccccc5O4)ccc3C2=O)C(=O)N1 (centres undefined) on Cereblon/Casein kinase I alpha (Homo sapiens) (UniProt P48729+Q96SW2), anyone have it?
[out] 46

[in] Record O=C1CCC(N2Cc3cc(NC(=O)c4cc5ccccc5o4)ccc3C2=O)C(=O)N1 (centres undefined) : what is its Activity with Cereblon/Casein kinase I alpha (Homo sapiens) (UniProt P48729+Q96SW2)?
[out] 62

[in] Form: Entry = O=C1CCC(N2Cc3cc(NC(=O)C4=Cc5ccc(C(F)(F)F)cc5OC4)ccc3C2=O)C(=O)N1 (centres undefined) | System = Cereblon/Casein kinase I alpha (Homo sapiens) (UniProt P48729+Q96SW2) | Activity = ____
[out] 65

[in] Item COc1cc(Br)cc2c1OCC(C(=O)Nc1ccc3c(c1)CN(C1CCC(=O)NC1=O)C3=O)=C2 (centres undefined) with Cereblon/Casein kinase I alpha (Homo sapiens) (UniProt P48729+Q96SW2) - Activity?
[out] 65

[in] Record COc1ccc2c(c1)OCC(C(=O)Nc1ccc3c(c1)CN(C1CCC(=O)NC1=O)C3=O)=C2 (centres undefined) : what is its Activity with Cereblon/Casein kinase I alpha (Homo sapiens) (UniProt P48729+Q96SW2)?
[out] 60

[in] Provide the documented Activity with Cereblon/Casein kinase I alpha (Homo sapiens) (UniProt P48729+Q96SW2) as the system for COc1cc2ccc(C(=O)Nc3ccc4c(c3)CN(C3CCC(=O)NC3=O)C4=O)cc2cn1 (centres undefined)
[out] 72

[in] For the record COc1ccc2cc(C(=O)Nc3ccc4c(c3)CN(C3CCC(=O)NC3=O)C4=O)cnc2c1 (centres undefined) , what value of Activity is listed for Cereblon/Casein kinase I alpha (Homo sapiens) (UniProt P48729+Q96SW2)?
[out] 62

Now look at this one.
[in] Form field: Activity recorded for O=C1CCC(N2Cc3cc(NC(=O)C4=Cc5cc(Br)cc(Br)c5OC4)ccc3C2=O)C(=O)N1 (centres undefined) with Cereblon/Casein kinase I alpha (Homo sapiens) (UniProt P48729+Q96SW2) (enter value)
[out] 47

---

Target: Protein cereblon/Zinc finger protein Helios (Homo sapiens) (UniProt Q96SW2+Q9UKS7)
Sequence (Q96SW2 whole entry, looked up): as the sequence (Q96SW2 whole entry partner) above
Sequence (Q9UKS7 whole entry, looked up): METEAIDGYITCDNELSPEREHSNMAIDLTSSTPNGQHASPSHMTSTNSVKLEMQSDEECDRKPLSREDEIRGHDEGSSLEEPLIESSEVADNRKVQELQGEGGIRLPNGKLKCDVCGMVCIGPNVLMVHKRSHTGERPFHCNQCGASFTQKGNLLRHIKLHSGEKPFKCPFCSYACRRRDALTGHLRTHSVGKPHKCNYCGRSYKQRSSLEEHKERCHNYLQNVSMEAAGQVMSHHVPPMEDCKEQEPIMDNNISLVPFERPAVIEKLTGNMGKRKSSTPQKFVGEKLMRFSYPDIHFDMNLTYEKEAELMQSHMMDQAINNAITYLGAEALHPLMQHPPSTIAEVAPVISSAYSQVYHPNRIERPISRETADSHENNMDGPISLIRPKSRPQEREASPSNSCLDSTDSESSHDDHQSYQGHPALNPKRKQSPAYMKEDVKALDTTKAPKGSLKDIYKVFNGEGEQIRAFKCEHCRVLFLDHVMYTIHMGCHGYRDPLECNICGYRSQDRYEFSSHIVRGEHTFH
Experiment: Protac activity at CRBN/IKZF2 (unknown origin) transfected in HEK293T cells at 100 nM incubated for 24 hrs by flow cytometry analysis relative to control
Type: cell-based
# note: boundary value 80% maps to -1; Activity below it maps to 1

# example entries with known answers
[in] In plain terms, does O=C1CCC(N2Cc3cc(NC(=O)c4ccc5ncsc5c4)ccc3C2=O)C(=O)N1 (stereo unspecified) come in under 80% for Activity?
[out] 1

[in] Regarding COc1cc(Br)cc2c1OCC(C(=O)Nc1ccc3c(c1)CN(C1CCC(=O)NC1=O)C3=O)=C2 (stereo unspecified) , kindly confirm whether its Activity is beneath 80%.
[out] 1

[in] Does O=C1CCC(N2Cc3cc(NC(=O)c4ccc5c(c4)OCO5)ccc3C2=O)C(=O)N1 (stereo unspecified) have Activity strictly under 80%?
[out] 1

Turning to the following compound.
[in] Lab note: confirm whether the reported Activity for this compound is below 80%, equality not counting. compound: COc1ccc2c(c1)C=C(C(=O)Nc1ccc3c(c1)CN(C1CCC(=O)NC1=O)C3=O)CO2 (stereo unspecified)
[out] 1

---

Biological target: Cereblon/Ikaros (Homo sapiens) (UniProt Q96SW2+Q13422)
Test: Protac activity at CRBN/IKZF1 in human MOLM-13 cells assessed as relative ratio at 25 uM incubated for 24 hrs by Western blotting analysis relative to DMSO
Assay type: cell-based
Measured Ratio, listed per entry for reference.

[in] Reported Ratio for O=C1CCC(N2Cc3cc(NCc4cccc(OCc5ccccc5)c4)ccc3C2=O)C(=O)N1 (stereo not drawn) : what is it?
[out] 0.04

Continuing:
[in] Which Ratio is reported for this compound? O=C1CCC(N2Cc3cc(NCc4ccc5cc(Br)ccc5c4)ccc3C2=O)C(=O)N1 (stereo not drawn)
[out] 0.73

[in] For the compound shown here, COc1ccc2cc(CNc3ccc4c(c3)CN(C3CCC(=O)NC3=O)C4=O)ccc2c1 (stereo not drawn) , give the reported Ratio.
[out] 0.64

[in] Recorded Ratio of O=C1CCC(N2Cc3cc(NCc4cccc5c4oc4ccccc45)ccc3C2=O)C(=O)N1 (stereo not drawn) , please.
[out] 0.32

[in] Tell me the measured Ratio of O=C1CCC(N2Cc3cc(NCc4cccc5ccccc45)ccc3C2=O)C(=O)N1 (stereo not drawn) , please.
[out] 0.66

---

Biological target: Protein cereblon/Zinc finger protein Helios (Homo sapiens) (UniProt Q96SW2+Q9UKS7)
Assay: Protac activity at CRBN/IKZF2 in human MOLM-13 cells at 25 uM incubated for 24 hrs by Western blotting analysis relative to control
Format: cell-based
Calls of active or inactive are those of the source. The rule behind the calls is not given here.
In this exercise, the only acceptable responses are active, inactive

Observe how each entry below is paired with its result.
[in] State the result this test recorded for COc1cc(CNc2ccc3c(c2)CN(C2CCC(=O)NC2=O)C3=O)cc2ccccc12 (centres undefined) .
[out] inactive

[in] Give the logged outcome of this assay for the following molecule: O=C1CCC(N2Cc3cc(NCc4ccc5cc(F)ccc5c4)ccc3C2=O)C(=O)N1 (centres undefined)
[out] active

[in] Hi team, can someone confirm the assay call for O=C1CCC(N2Cc3cc(NC(=O)c4ccc5ccccc5c4)ccc3C2=O)C(=O)N1 (centres undefined) ?
[out] active

[in] Hi team, can someone confirm the assay call for COc1cccc2ccc(CNc3ccc4c(c3)CN(C3CCC(=O)NC3=O)C4=O)cc12 (centres undefined) ?
[out] inactive

[in] Kindly provide the recorded test outcome for the following molecule: O=C1CCC(N2Cc3cc(NCc4ccc5ccccc5c4)ccc3C2=O)C(=O)N1 (centres undefined)
[out] active

[in] Record request — test call for O=C1CCC(N2Cc3cc(NCc4ccc5c(c4)oc4ccccc45)ccc3C2=O)C(=O)N1 (centres undefined)
[out] active

Continuing:
[in] Which outcome was assigned to COc1cc2c(OC)cccc2cc1CNc1ccc2c(c1)CN(C1CCC(=O)NC1=O)C2=O (centres undefined) in this test?
[out] active

[in] Hello, I am checking results. What call was entered for CN(C)c1ccc2cc(CNc3ccc4c(c3)CN(C3CCC(=O)NC3=O)C4=O)ccc2c1 (centres undefined) ?
[out] active

[in] I'd appreciate the recorded outcome for O=C1CCC(N2C(=O)c3ccc(NCc4ccc5ccccc5c4)cc3C2=O)C(=O)N1 (centres undefined) from this test.
[out] active

[in] State the result this test recorded for O=C1CCC(N2Cc3cc(NCc4cccc5c4oc4ccccc45)ccc3C2=O)C(=O)N1 (centres undefined) .
[out] active

[in] Record request — test call for O=C1CCC(N2Cc3cc(NCc4ccc5oc6ccccc6c5c4)ccc3C2=O)C(=O)N1 (centres undefined)
[out] active

[in] # outcome recorded in this test, key = COc1ccc2cc(CNc3ccc4c(c3)CN(C3CCC(=O)NC3=O)C4=O)ccc2c1 (centres undefined)
[out] active

[in] Record lookup: outcome of this test for COc1ccc2ccc(CNc3ccc4c(c3)CN(C3CCC(=O)NC3=O)C4=O)cc2c1 (centres undefined) ?
[out] inactive

[in] For this molecule, state the assay outcome: O=C1CCC(N2Cc3cc(NCCc4ccc5ccccc5c4)ccc3C2=O)C(=O)N1 (centres undefined)
[out] inactive

---

Measured half-life accompanies every entry in the list below.
Assay: Metabolic stability in mouse liver microsomes assessed as half life preincubated with NADPH and UDPGA for 5 mins followed by compound addition and measured upto 60 mins by LC-MS/MS analysis
Assay type: ADME, Microsome

Look over these answered cases.
[in] // returns reported half-life for input [2H]C([2H])([2H])Oc1ccc2cc(C(=O)Nc3ccc4c(c3)CN(C3CCC(=O)NC3=O)C4=O)ccc2c1 (configuration not stated)
[out] > 4.25 h

[in] Return reported half-life; argument: COc1ccc2cc(C(=O)Nc3ccc4c(c3)CN(C3CCC(=O)NC3=O)C4=O)cnc2c1 (configuration not stated)
[out] > 4.25 h

[in] Return reported half-life; argument: Nc1cccc2c1CN(C1CCC(=O)NC1=O)C2=O (configuration not stated) [LENALIDOMIDE]
[out] > 6 h

[in] Entry under review: COc1ccc2cc(C(=O)Nc3ccc4c(c3)CN(C3CCC(=O)NC3=O)C4=O)ncc2c1 (configuration not stated) . Reported half-life?
[out] 3.48 h

[in] Field request: half-life | item: COc1cnc2cc(C(=O)Nc3ccc4c(c3)CN(C3CCC(=O)NC3=O)C4=O)ccc2c1 (configuration not stated)
[out] > 4.25 h

Continuing:
[in] Find the recorded half-life belonging to COc1ccc2nc(C(=O)Nc3ccc4c(c3)CN(C3CCC(=O)NC3=O)C4=O)ccc2c1 (configuration not stated) and report it.
[out] 0.398 h

[in] What does the data say about its half-life? Entry: CC(C)Oc1ccc2cc(C(=O)Nc3ccc4c(c3)CN(C3CCC(=O)NC3=O)C4=O)ccc2c1 (configuration not stated)
[out] > 4.25 h

[in] Look up half-life for this molecule: CCOc1ccc2cc(C(=O)Nc3ccc4c(c3)CN(C3CCC(=O)NC3=O)C4=O)ccc2c1 (configuration not stated)
[out] > 4.25 h

[in] // query half-life value for entry COc1ccc2cc(C(=O)Nc3ccc4c(c3)CN(C3CCC(=O)NC3=O)C4=O)ccc2c1 (configuration not stated)
[out] 3.13 h

[in] half-life lookup needed for COc1ccc2cc(C(=O)Nc3ccc4c(c3)CN(C3CCC(=O)NC3=O)C4=O)ccc2n1 (configuration not stated) , thanks.
[out] > 4.25 h

[in] Quick one: half-life of O=C1CCC(N2Cc3cc(NC(=O)c4ccc5ccccc5c4)ccc3C2=O)C(=O)N1 (configuration not stated) ?
[out] > 4.25 h

[in] Please give the measured half-life for this molecule: CCCCOc1ccc2cc(C(=O)Nc3ccc4c(c3)CN(C3CCC(=O)NC3=O)C4=O)ccc2c1 (configuration not stated)
[out] > 4.25 h
